Origin of the recorded values: patent US20070060639A1

- experimental-conditions: male, Sprague-Dawley, rat, plasma, iv, 1 mg/kg, Mean plasma concentration of THC, Intravenous (1 mg/kg), propylene glycol, n = 3, rat, time 60 minutes
metric: concentration at 60 minutes

compound	val
CCCCCc1cc(O)c2c(c1)OC(C)(C)[C@@H]1CCC(C)=C[C@@H]21 [THC, delta-9-tetrahydrocannabinol]	34 ng/mL

* * *

- experimental-conditions: male, Sprague-Dawley, rat, plasma, iv, 1 mg/kg, Mean plasma concentration of THC, Intravenous (1 mg/kg), propylene glycol, n = 3, rat, time 15 minutes

compound	concentration at 15 minutes / ng/mL
CCCCCc1cc(O)c2c(c1)OC(C)(C)[C@@H]1CCC(C)=C[C@@H]21 [THC, delta-9-tetrahydrocannabinol]	73

* * *

- experimental-conditions: male, Sprague-Dawley, rat, plasma, iv, 1 mg/kg, Mean plasma concentration of THC, Intravenous (1 mg/kg), propylene glycol, n = 3, rat, time 120 minutes

compound	units-of-measure	concentration at 120 minutes
CCCCCc1cc(O)c2c(c1)OC(C)(C)[C@@H]1CCC(C)=C[C@@H]21 [THC, delta-9-tetrahydrocannabinol]	ng/mL	24

* * *

- experimental-conditions: male, Sprague-Dawley, rat, plasma, other: intranasal, 10 mg/kg, Mean plasma concentration of THC, Intranasal (10 mg/kg), 90:10 propylene glycol/ethanol, n = 5, rat, time 5 minutes

compound	concentration at 5 minutes, ng/mL
CCCCCc1cc(O)c2c(c1)OC(C)(C)[C@@H]1CCC(C)=C[C@@H]21 [THC, delta-9-tetrahydrocannabinol]	0

* * *

- experimental-conditions: male, Sprague-Dawley, rat, plasma, other: intranasal, 10 mg/kg, Mean plasma concentration of THC, Intranasal (10 mg/kg), propylene glycol, n = 3, rat, time 360 minutes

compound	units-of-measure	concentration at 360 minutes
CCCCCc1cc(O)c2c(c1)OC(C)(C)[C@@H]1CCC(C)=C[C@@H]21 [THC, delta-9-tetrahydrocannabinol]	ng/mL	17

* * *

- experimental-conditions: male, Sprague-Dawley, rat, plasma, other: intranasal, 10 mg/kg, Mean plasma concentration of THC, Intranasal (10 mg/kg), 90:10 propylene glycol/ethanol, n = 5, rat, time 420 minutes
metric: concentration at 420 minutes (ng/mL)

compound	val
CCCCCc1cc(O)c2c(c1)OC(C)(C)[C@@H]1CCC(C)=C[C@@H]21 [THC, delta-9-tetrahydrocannabinol]	16

* * *

- experimental-conditions: male, Sprague-Dawley, rat, plasma, other: intranasal, 10 mg/kg, Mean plasma concentration of THC, Intranasal (10 mg/kg), propylene glycol, n = 3, rat, time 5 minutes

molecule	concentration at 5 minutes
CCCCCc1cc(O)c2c(c1)OC(C)(C)[C@@H]1CCC(C)=C[C@@H]21 [THC, delta-9-tetrahydrocannabinol]	0 µg/mL

* * *

- experimental-conditions: male, Sprague-Dawley, rat, plasma, other: intranasal, 10 mg/kg, Mean plasma concentration of THC, Intranasal (10 mg/kg), 90:10 propylene glycol/ethanol, n = 5, rat, time 30 minutes

molecule	concentration at 30 minutes
CCCCCc1cc(O)c2c(c1)OC(C)(C)[C@@H]1CCC(C)=C[C@@H]21 [THC, delta-9-tetrahydrocannabinol]	43 ng/mL

* * *

- experimental-conditions: male, Sprague-Dawley, rat, plasma, other: intranasal, 10 mg/kg, Mean plasma concentration of THC, Intranasal (10 mg/kg), 90:10 propylene glycol/ethanol, n = 5, rat, time 120 minutes

compound	units-of-measure	concentration at 120 minutes
CCCCCc1cc(O)c2c(c1)OC(C)(C)[C@@H]1CCC(C)=C[C@@H]21 [THC, delta-9-tetrahydrocannabinol]	ng/mL	75
